meta.source: patent US20150203579A1

# MFI per record follows
# measured_on: full length human PD-1 on HEK293/hPD-1 cells (human, UniProt Q15116 25-288)
# Sequence (Q15116 25-288 limits assumed): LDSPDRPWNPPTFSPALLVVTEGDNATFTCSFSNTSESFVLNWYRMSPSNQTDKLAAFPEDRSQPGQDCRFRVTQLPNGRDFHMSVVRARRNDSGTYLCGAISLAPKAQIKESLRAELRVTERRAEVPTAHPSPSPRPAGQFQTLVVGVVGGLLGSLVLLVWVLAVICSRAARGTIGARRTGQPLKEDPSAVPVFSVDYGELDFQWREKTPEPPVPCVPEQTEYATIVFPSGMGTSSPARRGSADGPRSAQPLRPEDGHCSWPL
# assay_details: FACS, 100 nM mAb, HEK293/hPD-1 cells;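 further: antibodies incubated with cells for 15-30 min on ice, bound antibody detected through a secondary F(ab′)2 by flow cytometry, with parental HEK293 cells tested in parallel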
Provide only the numeric value, understood in MFI.

Some binders with known MFI results, for comparison:
binder	units_label	MFI
H2aM7791N (antibody, V domains shown, human variable regions, mouse IgG2a Fc; also called H2M7791N) VH: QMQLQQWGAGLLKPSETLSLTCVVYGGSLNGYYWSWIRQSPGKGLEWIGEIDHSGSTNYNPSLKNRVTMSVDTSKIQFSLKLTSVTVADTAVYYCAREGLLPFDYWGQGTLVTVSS VL: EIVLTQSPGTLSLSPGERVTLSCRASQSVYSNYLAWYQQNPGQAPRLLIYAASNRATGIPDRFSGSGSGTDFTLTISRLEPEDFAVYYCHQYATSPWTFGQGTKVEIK	MFI	4950
H2aM7798N (antibody, V domains shown, human variable regions, mouse IgG2a Fc; also called H2M7798N) VH: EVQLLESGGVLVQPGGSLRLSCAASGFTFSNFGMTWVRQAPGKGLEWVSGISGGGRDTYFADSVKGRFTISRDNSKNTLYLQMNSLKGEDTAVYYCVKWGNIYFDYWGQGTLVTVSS VL: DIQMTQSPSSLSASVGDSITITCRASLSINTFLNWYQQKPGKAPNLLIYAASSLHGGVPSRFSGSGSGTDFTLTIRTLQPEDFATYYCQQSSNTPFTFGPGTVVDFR	MFI	23400

Query H2aM7795N (antibody, V domains shown, human variable regions, mouse IgG2a Fc; also called H2M7795N) VH: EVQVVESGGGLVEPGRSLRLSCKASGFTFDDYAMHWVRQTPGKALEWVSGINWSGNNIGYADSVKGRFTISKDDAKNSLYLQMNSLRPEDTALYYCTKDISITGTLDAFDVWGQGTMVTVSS VL: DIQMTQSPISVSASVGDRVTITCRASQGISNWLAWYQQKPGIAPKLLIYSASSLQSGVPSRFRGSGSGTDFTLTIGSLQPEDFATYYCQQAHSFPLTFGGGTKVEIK yields MFI of 817
